- Tested on: RPMI-8226 leukemia
- assayRemarks: NCI tumour cell line growth inhibition, 48 h; in the data active = GI50 below about 0.43 µM; inactive = the rest
Choose the fitting class; nothing outside T = active, F = inactive is accepted.

**Q:** Kindly provide the recorded test outcome for the following compound: C=C(CN(C)Cc1ccccc1)c1ccc(NC(=O)c2ccc(C(=C)CN(C)Cc3ccccc3)cc2)cc1
**A:** F

**Q:** Kindly provide the recorded test outcome for the following compound: CCOC(=O)Nc1c(C)nc2ccccn12
**A:** F

**Q:** Kindly provide the recorded test outcome for the following compound: COc1ccc(-c2cc(=O)oc3c4c(ccc23)OCN(Cc2ccc(F)cc2)C4)cc1
**A:** F

**Q:** Kindly provide the recorded test outcome for the following compound: C=C(C)C(C1C=C(CCC(C=O)=C(C)C)C(=O)O1)C1(OC)C=C(C)C(=O)O1 (centres undefined)
**A:** F

**Q:** Kindly provide the recorded test outcome for the following compound: O=C(Nc1nc(-c2c[nH]c3ccccc23)cs1)c1n[nH]c(=O)c2ccccc12
**A:** F

**Q:** Kindly provide the recorded test outcome for the following compound: COC(=O)/C=C/c1cc(OC(C)=O)c2c(c1)C(C(=O)OC)C(c1ccc(OC(C)=O)c(OC(C)=O)c1)O2 (centres undefined)
**A:** T

**Q:** Kindly provide the recorded test outcome for the following compound: O=c1cccc(C#CC#C[C@@H]2O[C@H]2CO)o1
**A:** F

**Q:** Kindly provide the recorded test outcome for the following compound: CCOC(=O)c1c(C)c2c(n1Cc1ccccc1)CSCC2=O
**A:** F

**Q:** Kindly provide the recorded test outcome for the following compound: COC(=O)C1=CN(CC2=CC(=O)C(C)=CC2=O)C=C(C(=O)OC)C1c1ccccc1OC
**A:** F

**Q:** Kindly provide the recorded test outcome for the following compound: CC[C@]1(O)C[C@H]2CN(CCc3c([nH]c4ccccc34)C(C(=O)OC)(c3cc4c(cc3OC)N(C)[C@H]3[C@@](O)(C(=O)OC)[C@H](OC(C)=O)[C@]5(CC)[C@@H]6C[C@@H]6CN6CC[C@]43[C@@H]65)C2)C1 (some centres undefined)
**A:** T

**Q:** Kindly provide the recorded test outcome for the following compound: O=c1[nH]c(-c2cccc(F)c2)cc2cc(F)ccc12
**A:** T

**Q:** Kindly provide the recorded test outcome for the following compound: OC(c1cc2cc(Cl)ccc2c2cc(C(F)(F)F)ccc12)C1CCCCN1 (centres undefined)
**A:** F

**Q:** Kindly provide the recorded test outcome for the following compound: COc1cc2c(cc1OCCCCCN1CCN(c3ncnc4ccccc34)CC1)N=CC1CCCN1C2=O (centres undefined)
**A:** T

**Q:** Kindly provide the recorded test outcome for the following compound: Cc1nc2c(Br)cc(Br)cc2c(=O)n1-c1nnc(-c2cccc(Cl)c2Cl)c(N)n1
**A:** F

Ref: PubChem BioAssay (NCI)
